Origin of measurements: patent US11655216B2

- experimental.system: glutathione-S-transferase (GST) tagged LXRalpha LBD (ligand binding domain) (Homo sapiens)
- Construct: purchased Invitrogen pv4655
- Sequence (Q13133 209-447 limits assumed): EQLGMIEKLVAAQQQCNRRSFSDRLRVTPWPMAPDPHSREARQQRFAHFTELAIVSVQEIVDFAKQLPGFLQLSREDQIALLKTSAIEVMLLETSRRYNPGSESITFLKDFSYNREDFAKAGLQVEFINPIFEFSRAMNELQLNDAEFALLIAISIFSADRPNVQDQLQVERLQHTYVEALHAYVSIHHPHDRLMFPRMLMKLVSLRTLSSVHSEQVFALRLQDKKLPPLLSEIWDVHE
- protocol.details: biochemical
- measurement.setup: read-out: LXR alpha actiivty at max dose, efficacy (% Emax) in relation to reference dual agonist T0901317
property.name: Emax (%)

In [3]: df
Out[3]:
                                   molecule  property_name  readout_units  reported
0  CN(C(=O)c1ccc(OCCCCC2CCN(C(=O)[C@](O)(c3ccccc3)C(F)(F)F)CC2)cc1Cl)C1CC1 (single isomer, unassigned)           Emax              %         7
1  CN(C)C(=O)c1ccc(O[C@H]2C[C@@H](CC3CCN(C(=O)[C@](O)(c4cccc(OC(F)F)c4)C(F)(F)F)CC3)C2)cc1Cl (single isomer, unassigned)           Emax              %        25
2  CN(C)C(=O)c1ccc(OC[C@@H]2C[C@H]2C2CCN(C(=O)[C@](O)(c3ccccc3)C(F)(F)C(F)(F)F)CC2)cc1Cl (single isomer, unassigned)           Emax              %        17
3  CCOC(=O)N1CCN(C(=O)c2ccc(OCCCCC3CCN(C(=O)C(O)(c4ccccc4)C(F)(F)F)CC3)nc2Cl)CC1 (stereo not drawn)           Emax              %        33

(1) O=C(c1ccc(OCCCCC2CCN(C(=O)C(O)(c3ccccc3)C(F)(F)F)CC2)cc1Cl)N1C[C@@H]2CC[C@H]1C2 (single isomer, unassigned)
(2) CN(C)C(=O)c1ccc(OCC[C@H]2CC23CCN(C(=O)[C@@](N)(c2ccccc2)C(F)(F)F)CC3)cc1Cl (single isomer, unassigned)
// compare measured Emax, left 1 , right 2 , return larger Refer to your chosen entry by its label in the reply.
2
